test system: mouse apolipoprotein B mRNA; experiment: Inhibition of mouse apolipoprotein B mRNA levels in primary mouse hepatocytes, real-time PCR; format: cell-based; details: Table 4, 50 nM
In the oligonucleotide strings, read from the 5' end, every base follows the letter of its sugar. An asterisk marks phosphorothioate; unmarked linkages are phosphodiester. Other units and linkages are bracketed, terminal groups are in braces. A string of capitals states the bases alone. e = 2'-O-(2-methoxyethyl) (MOE); [5mC] = 5-methylcytosine; d = 2'-deoxy (DNA)
endpoint label: Percent Inhibition 50 nM (%)
Value expressed in %; do not type the unit.

Ask: For the substance shown here, 147769 (e[5mC]*eA*eT*eG*e[5mC]*d[5mC]*dT*dG*dG*dA*dA*dG*d[5mC]*d[5mC]*dA*eG*eT*eG*eT*e[5mC]) [compound 147769] , give the reported Percent Inhibition 50 nM.
Result: 3

Ask: For the substance shown here, 147483 (ATGTCAATGCCACATGTCCA; phosphorothioate, 2'-MOE wings, chemistry not fully specified) [compound 147483] , give the reported Percent Inhibition 50 nM.
Result: 56

Ask: For the substance shown here, 147764 (eG*eT*e[5mC]*e[5mC]*e[5mC]*dT*dG*dA*dA*dG*dA*dT*dG*dT*d[5mC]*eA*eA*eT*eG*e[5mC]) [compound 147764] , give the reported Percent Inhibition 50 nM.
Result: 48

Ask: For the substance shown here, 147776 (antisense eG*e[5mC]*eT*eT*eG*dA*dA*dG*dT*dT*d[5mC]*dA*dT*dT*dG*eA*eG*eA*eA*eT) [compound 147776] , give the reported Percent Inhibition 50 nM.
Result: 0
